Biological target: T1, human Nectin-4 extracellular antigen hNectin-4-His (human, UniProt Q96NY8 32-349)
T1 construct: C-terminal 8xHis tag included
T1 sequence: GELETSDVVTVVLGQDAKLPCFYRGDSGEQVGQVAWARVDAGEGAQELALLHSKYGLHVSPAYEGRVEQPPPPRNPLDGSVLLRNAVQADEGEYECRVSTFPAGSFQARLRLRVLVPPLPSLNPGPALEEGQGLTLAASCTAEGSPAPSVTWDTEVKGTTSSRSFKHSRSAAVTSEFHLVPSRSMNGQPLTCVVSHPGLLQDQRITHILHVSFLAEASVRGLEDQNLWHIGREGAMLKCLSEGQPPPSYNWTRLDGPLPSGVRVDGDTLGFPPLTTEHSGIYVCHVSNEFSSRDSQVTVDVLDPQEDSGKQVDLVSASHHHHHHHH
Assay: SPR, antibody on Protein A chip, 1:1 fit
Parameter: kon (M⁻¹ s⁻¹)

antibody 10F4-2C6 (antibody, human IgG1, kappa, V domains shown) VH: EVQLVESGGGLVQPGGSLRLSCAASGFNFGGFDMSWVRQAPGKGLEWVSGIKQYKGYTSYADSVKGRFTISRDNSKNTLYLQMNSLRAEDTAVYYCAREYSDVVDYVSVRTPLDYWGQGTLVTVSS VL: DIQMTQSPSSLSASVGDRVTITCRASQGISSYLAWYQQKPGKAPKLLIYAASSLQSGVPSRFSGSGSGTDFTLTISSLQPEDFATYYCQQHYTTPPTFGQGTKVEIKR: 294000
antibody 10F4-1G7 (antibody, human IgG1, kappa, V domains shown) VH: EVQLVESGGGLVQPGGSLRLSCAASGYNFGDYDMSWVRQAPGKGLEWVSSIIGHGDTKFYADSVKGRFTISRDNSKNTLYLQMNSLRAEDTAVYYCAREYSDVVDYVSVRTPLDYWGQGTLVTVSS VL: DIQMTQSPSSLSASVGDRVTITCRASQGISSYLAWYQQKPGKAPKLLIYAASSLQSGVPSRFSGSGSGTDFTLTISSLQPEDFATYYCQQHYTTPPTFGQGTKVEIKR: 389000
antibody 1F3-1B1 (antibody, human IgG1, kappa, V domains shown) VH: EVQLVESGGGLVQPGGSLRLSCAASGFTFGTYGMSWVRQAPGKGLEWVSGIKPGDSTTYYADSVKGRFTISRDNSKNTLYLQMNSLRAEDTAVYYCARAELLAFDVYTASDYWGQGTLVTVSS VL: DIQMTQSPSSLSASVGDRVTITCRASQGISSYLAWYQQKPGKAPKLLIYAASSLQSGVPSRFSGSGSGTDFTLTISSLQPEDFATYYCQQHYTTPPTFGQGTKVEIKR: 1.2e+06
antibody 10F4-1H11 (antibody, human IgG1, kappa, V domains shown) VH: EVQLVESGGGLVQPGGSLRLSCAASGYTFTGFWMSWVRQAPGKGLEWVSSISPDSGTKHYADSVKGRFTISRDNSKNTLYLQMNSLRAEDTAVYYCAREYSDVVDYVSVRTPLDYWGQGTLVTVSS VL: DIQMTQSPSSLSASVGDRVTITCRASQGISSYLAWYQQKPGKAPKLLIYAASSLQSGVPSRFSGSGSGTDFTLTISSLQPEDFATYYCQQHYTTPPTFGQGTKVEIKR: 350000
antibody 1F3-1H3 (antibody, human IgG1, kappa, V domains shown) VH: EVQLVESGGGLVQPGGSLRLSCAASGFNFYNYGMSWVRQAPGKGLEWVSGIKPHSDVAHYADSVKGRFTISRDNSKNTLYLQMNSLRAEDTAVYYCARAELLAFDVYTASDYWGQGTLVTVSS VL: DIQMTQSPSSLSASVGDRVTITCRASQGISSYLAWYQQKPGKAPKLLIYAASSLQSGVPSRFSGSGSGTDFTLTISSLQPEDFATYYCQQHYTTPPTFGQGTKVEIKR: 1.69e+06
